Assay: qHTS Assay for Lipid Storage Modulators in Drosophila S3 Cells; further: potency means the concentration at half of the fitted maximal effect
Conditions: BODIPY lipid droplet fluorescence, 18-24 h, cells fed with added oleic acid; series mostly up to 46.1 µM
The whole screen tested about 320,000 compounds, of which about 2,100 (0.66%) were called active. Inconclusive results (about 53%) are left out. This is one part of a sample in which actives are shown more often than they occur.
property label: Potency

COCCOC(=O)c1c(NC(=O)COC(=O)c2ccc(C)o2)sc(C(N)=O)c1C    inactive
Cc1cccc(NC(=O)NNC(=O)c2ccc(C)c([N+](=O)[O-])c2)c1    inactive
NC(=O)CS(=O)(=O)c1ccc(Cl)cc1    inactive
O=C(Nc1cccc(NC(=O)c2ccccc2Cl)c1)c1ccc([N+](=O)[O-])o1    inactive
O=C(c1ccccc1)N1CCC(CC2CC(c3cccc(Br)c3)=NO2)(C(=O)NCC2CCCCC2)CC1 (stereo not given)    inactive
Cc1cc(C(=O)Nc2cccc(NC(=O)c3ccco3)c2)ccc1[N+](=O)[O-]    1.84 µM (active)
O=C(CN1C(=O)c2ccccc2S1(=O)=O)Nc1ccccc1C(=O)NCc1ccco1    inactive
O=C(Nc1cccc(NC(=O)c2ccc([N+](=O)[O-])o2)c1)c1ccco1    5.8 µM (active)
COCCOC(=O)c1c(NC(=O)CN(C)c2ccccc2)sc(C(N)=O)c1C    inactive

Pending compound:
Prompt line: For the compound O=C(Nc1ccc(Cl)c([N+](=O)[O-])c1)c1ccco1 , what Potency is on record?
Response line: inactive
